Target: T1, purified recombinant human α5β1 integrin heterodimer, 6×His tagged (rh-α5β1); Acro Biosystems, cat. no. … (human, UniProt P08648 42-995; P05556 21-728)
T1 construct: bought recombinant heterodimer; also called rh-α5β1-6×His tagged protein; His-tagged-α5β1
T1 sequence (P08648 42-995 limits assumed, form in doubt, chain 1 of 2): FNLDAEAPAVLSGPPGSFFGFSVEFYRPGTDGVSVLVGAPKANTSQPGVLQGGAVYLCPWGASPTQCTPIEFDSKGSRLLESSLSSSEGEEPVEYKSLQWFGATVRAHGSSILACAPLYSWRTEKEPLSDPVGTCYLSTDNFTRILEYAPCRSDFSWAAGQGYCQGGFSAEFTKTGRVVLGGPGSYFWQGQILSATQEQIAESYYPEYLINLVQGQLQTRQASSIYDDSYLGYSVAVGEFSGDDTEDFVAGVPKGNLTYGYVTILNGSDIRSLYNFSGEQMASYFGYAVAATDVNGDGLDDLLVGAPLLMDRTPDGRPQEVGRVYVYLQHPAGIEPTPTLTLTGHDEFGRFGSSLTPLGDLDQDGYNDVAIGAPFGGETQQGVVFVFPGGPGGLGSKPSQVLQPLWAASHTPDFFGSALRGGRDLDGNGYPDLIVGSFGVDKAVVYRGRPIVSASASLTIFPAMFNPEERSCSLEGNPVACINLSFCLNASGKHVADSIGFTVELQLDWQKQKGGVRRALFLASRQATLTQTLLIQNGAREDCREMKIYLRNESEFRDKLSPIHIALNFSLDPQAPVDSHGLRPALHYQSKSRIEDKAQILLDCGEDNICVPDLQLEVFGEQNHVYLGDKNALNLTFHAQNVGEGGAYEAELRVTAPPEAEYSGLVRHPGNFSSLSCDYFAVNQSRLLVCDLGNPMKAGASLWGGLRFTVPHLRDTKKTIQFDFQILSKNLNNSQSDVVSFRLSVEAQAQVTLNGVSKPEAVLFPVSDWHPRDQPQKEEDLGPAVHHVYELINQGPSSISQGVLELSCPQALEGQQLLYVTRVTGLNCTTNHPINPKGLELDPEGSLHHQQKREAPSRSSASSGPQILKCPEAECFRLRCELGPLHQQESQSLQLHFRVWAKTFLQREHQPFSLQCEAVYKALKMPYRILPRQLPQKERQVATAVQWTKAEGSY
T1 sequence (P05556 21-728 limits assumed, form in doubt, chain 2 of 2): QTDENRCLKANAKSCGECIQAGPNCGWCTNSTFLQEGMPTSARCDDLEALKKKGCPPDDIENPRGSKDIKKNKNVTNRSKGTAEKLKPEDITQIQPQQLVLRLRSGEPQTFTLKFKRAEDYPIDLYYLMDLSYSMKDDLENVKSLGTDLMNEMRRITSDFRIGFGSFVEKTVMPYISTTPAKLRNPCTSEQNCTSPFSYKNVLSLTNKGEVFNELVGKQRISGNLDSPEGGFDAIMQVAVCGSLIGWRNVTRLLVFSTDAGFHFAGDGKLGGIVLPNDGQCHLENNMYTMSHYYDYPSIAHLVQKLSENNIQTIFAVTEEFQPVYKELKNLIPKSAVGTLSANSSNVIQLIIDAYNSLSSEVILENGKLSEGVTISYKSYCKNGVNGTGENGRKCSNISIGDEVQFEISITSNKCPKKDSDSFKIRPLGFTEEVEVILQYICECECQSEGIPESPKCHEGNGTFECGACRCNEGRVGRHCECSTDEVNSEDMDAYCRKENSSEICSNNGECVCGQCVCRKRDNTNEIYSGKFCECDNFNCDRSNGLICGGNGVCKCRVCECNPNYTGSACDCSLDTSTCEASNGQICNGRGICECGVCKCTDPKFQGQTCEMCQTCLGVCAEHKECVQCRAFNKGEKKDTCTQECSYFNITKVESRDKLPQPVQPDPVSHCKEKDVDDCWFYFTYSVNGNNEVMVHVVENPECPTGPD
Assay: BLI (Octet), supernatant mAb on anti-mouse IgG Fc sensor, 20 nM rh-α5β1
readout_kind: kon (M⁻¹ s⁻¹)
Expressed in M⁻¹ s⁻¹, but write only the number.

As a guide, the following entries are already answered.
binder | obs_value
A2-3B06 (antibody, V domains shown, mouse hybridoma antibody) VH: QVQLKESGPGLVAPSQSLSITCTISGFSLTTYGVHWVRQPPGKGLEWLVVIWSDGSTTYNSALKSRLNITKDNSKSQVFLKMNSLQTDDTAMYYCVRHGGLLRRDAMDYWGQGTSVTVSS VL: QIVLTQSPAIMSASLGERVTMTCTASSSVSSNSFHWYQQKPGSSPKLWLYSTSNLASGVPARFSGSGSGTSYSLTISSMEAEDAATYYCHQYLRSPPTFGGGTKLEIK | 289000
A-11G01 (antibody, V domains shown, mouse hybridoma antibody) VH: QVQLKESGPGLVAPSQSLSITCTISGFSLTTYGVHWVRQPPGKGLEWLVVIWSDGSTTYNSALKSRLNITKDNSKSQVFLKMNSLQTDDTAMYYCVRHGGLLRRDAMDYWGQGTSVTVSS VL: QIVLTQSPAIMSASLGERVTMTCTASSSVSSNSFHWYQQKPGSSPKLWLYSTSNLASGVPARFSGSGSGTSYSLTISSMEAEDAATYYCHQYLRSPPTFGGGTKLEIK | 261000

Turning now to a further record.
kon for A-14G08 (antibody, V domains shown, mouse hybridoma antibody) VH: QVQLQQPGAELVKPGASVKLSCKASGYTFTIYWINWVKQRPGQGLEWIGKIYPGSISTDYNEKFKSKATLTVDTSSSTAYMQLSSLTSDDSAVYYCAITGTGGLAYWGQGTLVTVSA VL: ENVLTQSPAIMSASLGEKVTMTCRASSSVNYMYWYQQKSDASPKLWIYFTSSLAPGVPGRFSGSGSGNSYSLTISTMEGEDAATYYCQQFTTSPFTFGSGTKLEIK is 234000

From: patent US20240279345A1
